Below, each entry is listed with its recorded GI50.
# Tested on: MOLT-4
# ASSAY_METHOD_TEXT: NCI tumour cell line growth inhibition, 48 h
The source made the active and inactive calls. Cut-off read from the data, not from the text of the source: active = GI50 up to about 1.1 µM and inactive = higher.
READOUT_KIND: GI50

{"columns": ["MOLECULE", "RESULT"],
 "data": [
  ["CC(C)(C)[Si](C)(C)O/N=C\\c1cccc(O[Si](C)(C)C(C)(C)C)c1", "18.1 µM (inactive)"],
  ["CC(=O)C1=CC=C/C1=N\\Nc1ccccc1", "3.67 µM (inactive)"],
  ["CC1(CCCO)CCCCCCCCCC(C)(CCCO)C1=O (stereo not drawn)", "> 100 µM (inactive)"],
  ["CCN1CCC(O)(c2ccccc2)C(C(=O)c2ccccc2)C1 (stereo not drawn)", "21.7 µM (inactive)"],
  ["O=C1C(=Cc2c(O)cc(O)cc2O)C(=O)c2ccccc21", "39.8 µM (inactive)"],
  ["COc1ccc2c(c1O)[C@@]13C=C(O)C(=O)C=C1[C@@H](C2)N(C)CC3", "36.1 µM (inactive)"],
  ["Cc1ccc(N(C(=O)CC(=O)NN)C(=O)c2ccccc2Cl)cc1", "> 100 µM (inactive)"],
  ["OC1c2ccccc2CCC1CN1CCN(CCOC(c2ccc(F)cc2)c2ccc(F)cc2)CC1 (stereo not drawn)", "8.83 µM (inactive)"],
  ["O=[N+]([O-])c1ccc2nc(O)c(/C=C(\\O)c3ccccc3)nc2c1", "> 100 µM (inactive)"],
  ["CCCCn1c(CSc2ccc(Cl)cc2)c(C(=O)OCC)c2cc(OC)c(Br)cc21", "> 100 µM (inactive)"],
  ["O=C(N/C(=C\\c1cccc([N+](=O)[O-])c1)c1nc2c(O)nc(S)nc2[nH]1)c1ccccc1", "94.4 µM (inactive)"],
  ["O=S(=O)(O)c1ccc(-c2c3nc(c(-c4ccc(S(=O)(=O)O)cc4)c4ccc([nH]4)c(-c4ccc(S(=O)(=O)O)cc4)c4nc(c(-c5ccc(S(=O)(=O)O)cc5)c5ccc2[nH]5)C=C4)C=C3)cc1", "3.1 µM (inactive)"],
  ["[O-][N+]1=NC(c2ccccc2)=C1c1ccccc1", "> 50 µM (inactive)"],
  ["CCc1c(OC(C)=O)c2c(NC3OCC(OC(C)=O)C(OC(C)=O)C3OC(C)=O)nc(SC)nc2oc1=O (stereo not drawn)", "> 100 µM (inactive)"],
  ["CCOC(=O)Nc1sc2c(c1C#N)CCCC2", "62.5 µM (inactive)"],
  ["O=C1CCSSCCC(=O)Nc2ccccc2N1", "34 µM (inactive)"],
  ["CC(=O)OC[C@H]1CN(OC(C)=O)C[C@@H](n2cc(C)c(=O)[nH]c2=O)O1", "> 100 µM (inactive)"],
  ["CC(=O)/C(=C\\c1ccco1)C(=O)Nc1ccccc1", "> 100 µM (inactive)"],
  ["COc1cc(CCCOC(=O)/C=C/c2ccc(O)c(O)c2)cc(O)c1O", "27.5 µM (inactive)"],
  ["CC(C)(C)C(=O)/C=C/c1cccc(Oc2ccccc2)c1", "14.6 µM (inactive)"],
  ["Cc1ccc2c(O)cc(-c3csc4ccccc34)nc2n1", "< 0.01 µM (active)"],
  ["CN(CCCN(C)Cc1ccc(Cl)c(Cl)c1)CCN1CCCC1", "6.27 µM (inactive)"],
  ["Cc1n[nH]c(N)c1C(N)=O", "> 100 µM (inactive)"],
  ["CNC(=O)c1nc[nH]c1/N=N/N(C)N", "> 100 µM (inactive)"],
  ["NNc1ccccc1Cl", "36.2 µM (inactive)"],
  ["Nc1nc(Cl)cc(NCC(O)CO)n1 (stereo not drawn)", "> 100 µM (inactive)"],
  ["COC(=O)CC(c1ccccc1)C1(c2ccccc2)SCCS1 (stereo not drawn)", "58.1 µM (inactive)"],
  ["O=C(CNc1ccc([N+](=O)[O-])cc1)Nn1c(-c2ccccc2)nc2ccccc2c1=O", "1.89 µM (inactive)"],
  ["COc1ccc(C)cc1NC(=S)N/N=C/c1ccc(SC)cc1", "45.4 µM (inactive)"],
  ["COc1ccc(C2C(C(=O)O)=C(CO)Oc3cc4c(cc32)OCO4)cc1 (stereo not drawn)", "> 10 µM (inactive)"],
  ["CO[C@H](c1ccccc1)[C@H](O)[C@](O)(c1ccccc1)P(=O)(OC)OC", "> 100 µM (inactive)"],
  ["Cc1ccc2c(n1)C(=O)C=CC2=O", "2.61 µM (inactive)"],
  ["c1ccc(CNCCCNCCCCNCCCNCc2ccccc2)cc1", "0.834 µM (active)"],
  ["COCOC1C=CCCCC2=CC(C)=C(CC1)O2 (stereo not drawn)", "42.3 µM (inactive)"],
  ["O=C(Nc1cc(Cl)c(Cl)cc1Cl)C(=O)C(C(=O)c1ccc(Cl)c(Cl)c1)C1OC(=O)c2ccccc21 (stereo not drawn)", "0.187 µM (active)"],
  ["COC(=O)CC1NC(=O)[C@@H]1C(C)O (stereo partly drawn)", "> 100 µM (inactive)"],
  ["CCCC(=O)OC1C(CO)OC(n2cc(F)c(=O)[nH]c2=O)C1F (stereo not drawn)", "> 100 µM (inactive)"],
  ["CN1CCc2cc3c4cc2C1Cc1ccc(cc1)Oc1cc(ccc1O)CC1c2c(cc(O)c(c2O4)O3)CCN1C (stereo not drawn)", "2.03 µM (inactive)"],
  ["CCOC(=O)c1c(SC(=O)c2ccc(C(C)(C)C)cc2)n(-c2ccccc2)c(=S)n(-c2ccccc2)c1=O", "59.4 µM (inactive)"],
  ["CC(O)(Cc1ccccc1C#N)Cc1ccccc1C#N", "28.6 µM (inactive)"],
  ["CCN(CC)c1c(C)nnn1C1OC(COC(C)=O)C(OC(C)=O)C(OC(C)=O)C1OC(C)=O (stereo not drawn)", "> 100 µM (inactive)"],
  ["COC(=O)C(Cc1nc2ccc(Cl)cc2nc1O)C(=O)C(=O)Nc1ccccc1[N+](=O)[O-] (stereo not drawn)", "> 100 µM (inactive)"],
  ["COc1ccccc1NC(=O)C1=C(C)NC(C)=C(C(=O)Nc2ccccc2OC)C1C1=CC=COC1", "13.3 µM (inactive)"]
]}
